Ref: ChEMBL document CHEMBL5052856

Below is a list of entries, each paired with its recorded IC50 value.
Molecular target: Apolipoprotein L1 (Homo sapiens)
Assay: Inhibition of APOL1 G1 variant in human HEK293-T-REx cells measured by Thallium assay

These solved cases illustrate the format of a correct answer.
Give the reported IC50 for this compound. CC1(C)CN(C(=O)[C@H]2C[C@H](c3c(-c4ccc(F)cc4)[nH]c4c(F)cc(F)cc43)C2)CCC1O (stereo partly drawn)
> 1000 nM

Fill in IC50 for record O=C(NCC1CCOCC1)[C@H]1C[C@H](c2c(-c3ccc(F)cc3)[nH]c3c(F)cc(F)cc32)C1
> 1000 nM

Hello, please tell me recorded IC50 for this one: O=C(NCC1(O)CCCC1)C1CC(Cc2c(-c3ccc(F)cc3)[nH]c3c(F)cc(F)cc23)C1 (stereo not drawn)
> 1000 nM

Retrieve IC50 measured for CC(=O)NC1CCCN(C(=O)[C@H]2C[C@H](c3c(-c4ccc(F)cc4)[nH]c4c(F)cc(F)cc43)C2)C1 (stereo partly drawn) and print it.
> 1000 nM

Please report IC50 for the following compound: CC1(NC(=O)NC[C@H]2C[C@H](c3c(-c4ccc(F)cc4)[nH]c4c(F)cc(F)cc43)C2)CCNC1=O (stereo partly drawn)
> 1000 nM

---
Dear colleague, please send me the reported IC50 for O=C([C@H]1C[C@H](c2c(-c3ccc(F)cc3)[nH]c3c(F)cc(F)cc32)C1)N1CCN[C@H](CO)C1 when you can.
> 1000 nM

State, in one line, measured IC50 of O=C(CNC(=O)[C@H]1C[C@H](c2c(-c3ccc(F)cc3)[nH]c3c(F)cc(F)cc32)C1)NC[C@H](O)C(F)(F)F
> 1000 nM

Complete the entry with IC50 for O=C([C@H]1C[C@H](c2c(-c3ccc(F)cc3)[nH]c3c(F)cc(F)cc32)C1)N1CCC[C@H](O)C1 (mixture of isomers)
> 1000 nM

* * *

The entries below come with measured pIC50 values attached.
Target: Apolipoprotein L1 (Homo sapiens, UniProt O14791)
Assay: Inhibition of APOL1 G1 variant in human HEK293-T-REx cells measured by Thallium assay
Assay type: cell-based
pIC50: −log10 of the molar value.

Illustrative cases are given below, each with its answer.
Please give the documented pIC50 of NC(=O)C1(NC(=O)[C@H]2C[C@H](c3c(-c4ccc(F)cc4)[nH]c4c(F)cc(F)cc43)C2)CC1
9.60

Given CC(C)CC(NC(=O)[C@H]1C[C@H](c2c(-c3ccc(F)cc3)[nH]c3c(F)cc(F)cc32)C1)C(N)=O (stereo partly drawn) , respond with its pIC50.
< 6.00

Fill in reported pIC50 for this entry: CN1CCN(C(=O)CNC(=O)[C@H]2C[C@H](c3c(-c4ccc(F)cc4)[nH]c4c(F)cc(F)cc43)C2)CC1
< 6.00

Read the entry O=C(NCc1ccoc1)C1CC(Cc2c(-c3ccc(F)cc3)[nH]c3c(F)cc(F)cc23)C1 (stereo not drawn) and write its reported pIC50.
< 6.00

Determine from records and report pIC50 for O=C(NCCO)[C@H]1C[C@H](c2c(-c3ccc(F)cc3)[nH]c3c(F)cc(F)cc32)C1
> 6.60

Moving on to another compound below.
Identify the reported pIC50 for the following entry. O=C(CC1CC(c2c(-c3ccc(F)cc3)[nH]c3c(F)cc(F)cc23)C1)N[C@H]1CCNC1=O (stereo partly drawn)
< 6.00

* * *

Molecular target: UniProtKB O14791
Test: Inhibition of APOL1 G1 variant in human HEK293-T-REx cells measured by Thallium assay
assay-endpoint: IC50

A selection of reference data follows.
// fetch IC50 given entry NC(=O)CCNC1CC(c2c(-c3ccc(F)cc3)[nH]c3c(F)cc(F)cc23)C1 (stereo not drawn)
> 1 µM

Name the recorded IC50 of the item NC(=O)CC1CC(c2c(-c3ccc(F)cc3)[nH]c3c(F)cc(F)cc23)C1 (stereo not drawn) in your answer.
< 0.25 µM

Respond only with IC50 recorded for CC(C)NC(=O)CN[C@H]1C[C@H](c2c(-c3ccc(F)cc3)[nH]c3c(F)cc(F)cc32)C1
> 1 µM

Provide one value: measured IC50 of COCc1cc(CNC(=O)[C@H]2C[C@H](c3c(-c4ccc(F)cc4)[nH]c4c(F)cc(F)cc43)C2)n[nH]1
> 1 µM

Check the records and state IC50 for O=C(N[C@H]1CCOC1)O[C@H]1C[C@H](c2c(-c3ccc(F)cc3)[nH]c3c(F)cc(F)cc32)C1
> 1 µM

Name the recorded IC50 of the item C[C@@H](O)[C@@H](CO)NC(=O)O[C@H]1C[C@H](c2c(-c3ccc(F)cc3)[nH]c3c(F)cc(F)cc32)C1 in your answer.
> 1 µM

Please supply the value of reported IC50 for the item C[C@@H](CO)NC(=O)[C@H]1C[C@H](c2c(-c3ccc(F)cc3)[nH]c3c(F)cc(F)cc32)C1
< 0.25 µM

New cases:
Output measured IC50 for this item: CC(NC(=O)[C@H]1C[C@H](c2c(-c3ccc(F)cc3)[nH]c3c(F)cc(F)cc32)C1)C(N)=O (stereo partly drawn)
0.00025 µM

* * *

Measured IC50, listed per entry.
Biological target: Apolipoprotein L1 (Homo sapiens)
Assay: Inhibition of APOL1 G1 variant in human HEK293-T-REx cells measured by Thallium assay

Answered cases to consult:
Provide only the value of recorded IC50 for C[C@H](CO)NC(=O)O[C@H]1C[C@H](c2c(-c3ccc(F)cc3)[nH]c3c(F)cc(F)cc32)C1
0.25 nM

For the molecule O=C(NCc1nnco1)[C@H]1C[C@H](c2c(-c3ccc(F)cc3)[nH]c3c(F)cc(F)cc32)C1 , report IC50.
0.25 nM

***
Recall and state the measured IC50 for C[C@H](O)CNC(=O)[C@H]1C[C@H](c2c(-c3ccc(F)cc3)[nH]c3c(F)cc(F)cc32)C1 .
0.25 nM

Give a short answer stating reported IC50 for O=C(CC1CC(c2c(-c3ccc(F)cc3)[nH]c3c(F)cc(F)cc23)C1)NC1(CO)CCC1 (centres undefined) .
> 1000 nM

Read the entry NC(=O)C1CCN(C(=O)[C@H]2C[C@H](c3c(-c4ccc(F)cc4)[nH]c4c(F)cc(F)cc43)C2)CC1 and write its reported IC50.
> 1000 nM

# return recorded IC50 for entry CC(N)(C(=O)NC(=O)[C@H]1C[C@H](c2c(-c3ccc(F)cc3)[nH]c3c(F)cc(F)cc32)C1)C(F)(F)F (some centres undefined)
> 1000 nM

Note down IC50 recorded for C[C@H](CO)NC(=O)CC1CC(c2c(-c3ccc(F)cc3)[nH]c3c(F)cc(F)cc23)C1 (some centres undefined)
> 1000 nM

Give reported IC50 value for CS(=O)(=O)NC(=O)[C@H]1C[C@H](c2c(-c3ccc(F)cc3)[nH]c3c(F)cc(F)cc32)C1
> 1000 nM

Tell me measured IC50 for O=C(NCC1(CO)CC1)C1CC(Cc2c(-c3ccc(F)cc3)[nH]c3c(F)cc(F)cc23)C1 (centres undefined) please.
> 1000 nM

* * *

Molecular target: Apolipoprotein L1 (Homo sapiens)
Assay: Inhibition of APOL1 G1 variant in human HEK293-T-REx cells measured by Thallium assay
assay-endpoint: IC50

// below: answered molecules
Read the entry O=C(NCC1CCNC1=O)NC[C@H]1C[C@H](c2c(-c3ccc(F)cc3)[nH]c3c(F)cc(F)cc32)C1 (some centres not stated) and write its reported IC50.
> 1000 nM

Specify measured IC50 for O=C(NC(CO)(CO)CO)[C@H]1C[C@H](c2c(-c3ccc(F)cc3)[nH]c3c(F)cc(F)cc32)C1 .
< 250 nM

Report measured IC50; entry is O=C(NCC1(O)CC1)[C@H]1C[C@H](c2c(-c3ccc(F)cc3)[nH]c3c(F)cc(F)cc32)C1
0.25 nM

Supply recorded IC50 for CC(NC(=O)[C@H]1C[C@H](c2c(-c3ccc(F)cc3)[nH]c3c(F)cc(F)cc32)C1)c1ccnn1C (some centres not stated) here.
> 1000 nM

In one line, give reported IC50 of the entry O=C(NCC1(O)CC1)NC[C@H]1C[C@H](c2c(-c3ccc(F)cc3)[nH]c3c(F)cc(F)cc32)C1 .
> 1000 nM

Note IC50 for the molecule shown: O=C([C@H]1C[C@H](c2c(-c3ccc(F)cc3)[nH]c3c(F)cc(F)cc32)C1)N1CC(n2cccn2)C1
> 1000 nM

Using known records, supply IC50 for Cc1noc(CNC(=O)C2CC(Cc3c(-c4ccc(F)cc4)[nH]c4c(F)cc(F)cc34)C2)n1 (configuration not stated)
> 1000 nM

Give the reported IC50 for this molecule. CC1(C(=O)NC2(CO)CC2)CC(c2c(-c3ccc(F)cc3)[nH]c3c(F)cc(F)cc23)C1 (configuration not stated)
< 250 nM

Next:
Give IC50 for the following molecule: CC(C)(O)C1CN(C(=O)[C@H]2C[C@H](c3c(-c4ccc(F)cc4)[nH]c4c(F)cc(F)cc43)C2)C1
> 1000 nM

Specify reported IC50 for the molecule shown: C[C@]1(NC(=O)[C@H]2C[C@H](c3c(-c4ccc(F)cc4)[nH]c4c(F)cc(F)cc43)C2)C[C@@H](O)C1
0.25 nM

Check the records and state IC50 for O=C(NC1CC(O)C1)[C@H]1C[C@@H](c2c(-c3ccc(F)cc3)[nH]c3c(F)cc(F)cc32)C1 (some centres not stated)
> 1000 nM

State its IC50 for this molecule: C[C@H](O)CNC(=O)O[C@H]1C[C@H](c2c(-c3ccc(F)cc3)[nH]c3c(F)cc(F)cc32)C1
> 1000 nM
